Biological target: human CB2 receptor (Homo sapiens)
Construct: host or cells: CHO-K1
Sequence (P34972 whole entry): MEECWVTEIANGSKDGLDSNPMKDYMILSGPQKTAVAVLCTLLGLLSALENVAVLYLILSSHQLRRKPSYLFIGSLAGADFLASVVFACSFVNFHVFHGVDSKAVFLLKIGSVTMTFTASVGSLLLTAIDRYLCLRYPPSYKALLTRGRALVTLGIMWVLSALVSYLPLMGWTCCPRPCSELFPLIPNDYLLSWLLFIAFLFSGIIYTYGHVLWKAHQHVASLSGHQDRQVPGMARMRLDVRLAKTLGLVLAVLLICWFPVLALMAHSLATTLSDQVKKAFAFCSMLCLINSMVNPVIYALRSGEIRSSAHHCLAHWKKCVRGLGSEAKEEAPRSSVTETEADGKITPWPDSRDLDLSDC
Assay: CB2 radioligand competitive binding assay ([3H]CP 55,940 displacement)
Details: fold difference between CB1 and CB2 binding, printed in the column of the receptor with the higher binding affinity
// label = fulfilled if Selectivity CB2 is not less than 4 fold, otherwise not fulfilled

>  <molecule>
CCCCCc1cc2c(c(O)c1C(=O)N(CC)CC)[C@@H]1C=C(C)CC[C@H]1C(C)(C)O2 [Compound 50b]

>  <qualitative label>
fulfilled

$$$$
>  <molecule>
CCCCCc1cc2c(c(O)c1C(=O)Nc1ccccc1)[C@@H]1C=C(C)CC[C@H]1C(C)(C)O2 [Compound 10b]

>  <qualitative label>
fulfilled

$$$$
>  <molecule>
CCCc1cc2c(c(O)c1C(=O)NC)[C@@H]1C=C(C)CC[C@H]1C(C)(C)O2 [Compound 58b]

>  <qualitative label>
fulfilled

$$$$
>  <molecule>
CCCCCc1cc2c(c(O)c1C(=O)N1CCOCC1)[C@@H]1C=C(C)CC[C@H]1C(C)(C)O2 [Compound 39b]

>  <qualitative label>
not fulfilled

$$$$
>  <molecule>
CCCCCc1cc2c(c(O)c1C(=O)N1CCCC1)[C@@H]1C=C(C)CC[C@H]1C(C)(C)O2 [Compound 41b]

>  <qualitative label>
not fulfilled

$$$$
>  <molecule>
CCCCCc1cc2c(c(O)c1C(=O)NCc1cccnc1)[C@@H]1C=C(C)CC[C@H]1C(C)(C)O2 [Compound 15b]

>  <qualitative label>
fulfilled

$$$$
>  <molecule>
CCCCCc1cc2c(c(O)c1C(=O)N1Cc3ccccc3C1)[C@@H]1C=C(C)CC[C@H]1C(C)(C)O2 [Compound 43b]

>  <qualitative label>
fulfilled

$$$$
>  <molecule>
CCCCCc1cc2c(c(O)c1C(=O)NCC)[C@@H]1C=C(C)CC[C@H]1C(C)(C)O2

>  <qualitative label>
not fulfilled

$$$$
>  <molecule>
CCCCCc1cc2c(c(O)c1C(=O)NC1CC1)[C@@H]1C=C(C)CC[C@H]1C(C)(C)O2

>  <qualitative label>
fulfilled

$$$$
